# tested on: Acetylcholinesterase (Homo sapiens)
pKi: −log10 of the molar value.

{"record smiles": "c1ccc2c[n+](Cc3ccc4ccc(C[n+]5ccc6ccccc6c5)cc4c3)ccc2c1", "pKi": 5.90}

---

# tested on: UniProtKB P22303
# assay name: Inhibition of human recombinant AChE by Lineweaver-Burk plot analysis
pIC50: −log10 of the molar value.
If the reported pIC50 equals or exceeds 5, assign class 1. If not, assign class 0.

{"record smiles": "c1ccc2c[n+](COC[n+]3ccc4ccccc4c3)ccc2c1", "tested on": "UniProtKB P22303", "classification": "class 1"}
{"record smiles": "c1ccc2c[n+](CCCCCCCCCCC[n+]3ccc4ccccc4c3)ccc2c1", "tested on": "UniProtKB P22303", "classification": "class 1"}
{"record smiles": "C(=C\\C[n+]1ccc2ccccc2c1)/C[n+]1ccc2ccccc2c1", "tested on": "UniProtKB P22303", "classification": "class 1"}
{"record smiles": "c1ccc2c[n+](CCCCCCCCCC[n+]3ccc4ccccc4c3)ccc2c1", "tested on": "UniProtKB P22303", "classification": "class 1"}
{"record smiles": "c1ccc2c[n+](CCCC[n+]3ccc4ccccc4c3)ccc2c1", "tested on": "UniProtKB P22303", "classification": "class 0"}

---

# tested on: Acetylcholinesterase (Homo sapiens, UniProt P22303)
# Sequence (P22303 whole entry): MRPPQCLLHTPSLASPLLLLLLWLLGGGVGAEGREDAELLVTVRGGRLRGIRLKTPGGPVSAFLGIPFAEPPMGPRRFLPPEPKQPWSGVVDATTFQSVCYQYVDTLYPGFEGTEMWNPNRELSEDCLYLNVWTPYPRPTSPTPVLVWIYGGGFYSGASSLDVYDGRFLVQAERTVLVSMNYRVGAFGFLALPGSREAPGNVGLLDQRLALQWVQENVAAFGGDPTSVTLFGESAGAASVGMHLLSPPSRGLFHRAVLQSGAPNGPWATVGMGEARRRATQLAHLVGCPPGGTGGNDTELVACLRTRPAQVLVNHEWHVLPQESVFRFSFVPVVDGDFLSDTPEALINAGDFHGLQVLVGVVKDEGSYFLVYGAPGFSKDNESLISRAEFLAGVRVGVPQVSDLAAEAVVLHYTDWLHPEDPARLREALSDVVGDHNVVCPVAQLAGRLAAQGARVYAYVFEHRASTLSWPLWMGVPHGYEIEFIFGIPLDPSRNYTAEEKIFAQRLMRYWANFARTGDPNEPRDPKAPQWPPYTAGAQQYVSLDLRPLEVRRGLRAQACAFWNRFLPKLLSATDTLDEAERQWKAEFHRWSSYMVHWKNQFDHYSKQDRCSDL
# assay name: Inhibition of human recombinant AChE by Lineweaver-Burk plot analysis
Doc: threshold 20 µM (exclusive). Items with IC50 beneath it return yes (1); others return no (0).

{"record smiles": "c1ccc2c[n+](Cc3ccc4ccc(C[n+]5ccc6ccccc6c5)cc4c3)ccc2c1", "classification": "yes (1)"}
{"record smiles": "c1ccc2c[n+](CCC[n+]3ccc4ccccc4c3)ccc2c1", "classification": "no (0)"}
{"record smiles": "c1ccc2c[n+](CCCCCCCCCCCC[n+]3ccc4ccccc4c3)ccc2c1", "classification": "no (0)"}
{"record smiles": "c1ccc2c[n+](CCCCCCCCC[n+]3ccc4ccccc4c3)ccc2c1", "classification": "yes (1)"}
{"record smiles": "c1ccc2c[n+](CCCCCCC[n+]3ccc4ccccc4c3)ccc2c1", "classification": "yes (1)"}
{"record smiles": "c1ccc2c[n+](CCCCC[n+]3ccc4ccccc4c3)ccc2c1", "classification": "yes (1)"}
{"record smiles": "c1ccc2c[n+](CCOCC[n+]3ccc4ccccc4c3)ccc2c1", "classification": "no (0)"}
{"record smiles": "C(=C/C[n+]1ccc2ccccc2c1)/C[n+]1ccc2ccccc2c1", "classification": "yes (1)"}
{"record smiles": "c1ccc2c[n+](CCCCCC[n+]3ccc4ccccc4c3)ccc2c1", "classification": "yes (1)"}
{"record smiles": "c1ccc2c[n+](C[n+]3ccc4ccccc4c3)ccc2c1", "classification": "no (0)"}
{"record smiles": "c1ccc2c[n+](Cc3ccc(C[n+]4ccc5ccccc5c4)cc3)ccc2c1", "classification": "yes (1)"}
{"record smiles": "c1ccc(C[n+]2ccc3ccccc3c2)c(C[n+]2ccc3ccccc3c2)c1", "classification": "no (0)"}
